Answer each item with its documented log10 of IC50.
Test Details: Inhibition of H+/K+ATPase in pig gastric microsomes assessed as liberation of inorganic phosphate from ATP hydrolysis after 30 mins
Parameters: species or system Sus scrofa, Stomach, Microsome
Recall that a logarithmic scale is used here: each number is log10 of IC50 in nM.

Some compounds with recorded log10 of IC50:
Exam item: Specify reported log10 of IC50 for the compound shown: CNCc1cc(-c2ccccc2)n(S(=O)(=O)c2ccccc2)c1
Marked response: 0.97

Exam item: Tell us which log10 of IC50 value is on record for CNCc1cc(C2CC2)n(S(=O)(=O)c2ccccc2)c1
Marked response: 3.18

Exam item: Return log10 of IC50 for the following compound: CN(C)Cc1cc(-c2ccccc2)n(S(=O)(=O)c2ccc(C(F)(F)F)cc2)c1
Marked response: 2.85

Exam item: // fetch log10 of IC50 given entry CCNCc1cc(-c2ccccc2)n(S(=O)(=O)c2ccc(C)cc2)c1
Marked response: 2.81

Exam item: Tell us which log10 of IC50 value is on record for CCCCS(=O)(=O)n1cc(CNC)cc1-c1ccccc1
Marked response: 2.92

Please state, for each entry, its recorded log10 of IC50.
1. CNCc1cc(-c2ccccc2)n(S(=O)(=O)c2ccc(OC)cc2)c1
2. CNCc1cc(-c2ccccc2)n(S(=O)(=O)c2ccc(C(F)(F)F)cc2)c1
3. CNCc1cc(-c2ccccc2)n(S(=O)(=O)c2ccc(C)cc2)c1
4. Cc1ccc(S(=O)(=O)n2cc(CN)cc2-c2ccccc2)cc1
5. CNCc1cc(-c2ccccc2)n(Cc2ccccc2)c1
6. CNC(C)c1cc(-c2ccccc2)n(S(=O)(=O)c2ccc(C(F)(F)F)cc2)c1 (centres undefined)
7. CNCc1cn(S(=O)(=O)c2ccccc2)c(-c2ccccc2)c1C

Marked response:
[1.48, 2.04, 1.74, 2.93, 2.71, 3.36, 1.46]

###

Would you mind telling me the reported pIC50 of each entry?
Test Details: Inhibition of H+/K+ATPase in pig gastric microsomes assessed as liberation of inorganic phosphate from ATP hydrolysis after 30 mins
Set-up: species or system Sus scrofa, Stomach, Microsome
Answers are plain numbers, as −log10 of the molar value.

Record pIC50 for all entries; do not skip any.
1. CCCCc1cc(CNC)cn1S(=O)(=O)c1ccccc1
2. CNCc1cc(-c2ccccc2)n(S(=O)(=O)c2ccccc2)c1C
3. CCNCc1cc(-c2ccc3c(c2)OCO3)n(S(=O)(=O)c2ccc(C)cc2)c1
4. CNCc1cc(-c2ccccc2)n(S(=O)(=O)c2ccccc2)c1Cl

Marked response:
[6.60, 7.60, 6.27, 7.40]

Taken from ChEMBL document CHEMBL2034820.
